system: NCI-H23 lung; experiment: NCI tumour cell line growth inhibition, 48 h; in the data active = GI50 below about 0.43 µM; inactive = the rest
Pick from Y = active, N = inactive when you respond.

Which outcome did this test record for the compound COc1cc(C2CC(c3ccc4c(c3)OCO4)=NN2C=O)cc(OC)c1OC (stereo unspecified) ?
N

Same read-out for "COc1ccc(-c2nc3sc4c(c3c(=O)[nH]2)CCCCCC4)cc1" ?
N

Check "Cc1ccc(-c2cn3ccnc3c(-c3ccc(Cl)cc3)n2)cc1" too.
N

What about this compound? "NCCn1c(=O)[nH]c(=O)[nH]c1=S"
N

Field entry: Nc1nc2c(c3ncncc13)C(c1cccc(C(F)(F)F)c1)Cc1ncncc1-2 (stereo unspecified)
N

Next record, please: "CC(C)c1cc(-c2n[nH]c(=O)n2-c2ccc3c(ccn3C)c2)c(O)cc1O"
Y

Can you handle "COc1ccc(OC)c(/C=C2\SC(=S)NC2=O)c1" next?
N

// repeat for "CCc1nccc2c1nc(-c1nonc1N)n2CC" and report
N

Try the compound "O=C(O)/C=C\C(=O)N1C/C(=C\c2ccccc2Cl)C(=O)/C(=C/c2ccccc2Cl)C1"
N

// next record COc1cc2c(c(OC)c1)C1c3ccccc3NC(=O)N1CC2 (stereo unspecified)
N

And then "COc1ccc(-c2c3c(N)nc(-c4ccncc4)nc3nc3c2c(C)nn3-c2ccccc2)cc1" , what is it?
N
